Known Potency of a selection of molecules
System: 996 bp segment of human myeloid leukocyte c-jun cDNA
Test: PCR amplification of c-jun cDNA with diol additives, standard cycling
Assay type: biochemical
Conditions: c-jun; normalized maximum densitometric volume of target band: 1,5-Pentanediol = 1

{"columns": ["molecule", "Potency"],
 "data": [
  ["CCC(O)CO (stereo not drawn)", 0.64],
  ["OCCCO", 0.25],
  ["OCCCCCO", 1.00],
  ["CC(O)CCO (stereo not drawn)", 0.77],
  ["CC(O)CO (stereo not drawn)", 0.60],
  ["OCC(O)CO [Glycerol, reference compound]", 0.13]
]}

###

Known Specificity of a selection of compounds
Tested on: 511 bp segment of human prostate-specific membrane antigen (PSM) cDNA
Assay: PCR amplification of PSM cDNA with diol additives, standard cycling
Format: biochemical
Settings: PSM; best specificity (densitometric volume of target as percent of total volume) over the effective range

{"columns": ["compound", "measured.on", "unit.text", "Specificity"],
 "data": [
  ["CC(O)CCO (stereo not drawn)", "511 bp segment of human prostate-specific membrane antigen (PSM) cDNA", "%", 94],
  ["CC(O)CO (stereo not drawn)", "511 bp segment of human prostate-specific membrane antigen (PSM) cDNA", "%", 89],
  ["CCC(O)CO (stereo not drawn)", "511 bp segment of human prostate-specific membrane antigen (PSM) cDNA", "%", 92],
  ["OCCCCCO", "511 bp segment of human prostate-specific membrane antigen (PSM) cDNA", "%", 94],
  ["OCCCCO", "511 bp segment of human prostate-specific membrane antigen (PSM) cDNA", "%", 92],
  ["OCC(O)CO [Glycerol, reference compound]", "511 bp segment of human prostate-specific membrane antigen (PSM) cDNA", "%", 83]
]}
